# subject_of_test: T1, biotinylated goat anti-human kappa light chain
# T1 construct: positive control of the ELISA
# method_description: ELISA, positive control; also: test concentration or dose not given here
readout: optical density (OD)
The reply should contain only the number, in OD.

The cases that follow already have their optical density on record.
>>> quantitative_result("374_D03 (antibody, V domains shown, Group III) VH: EVQLLESGGGLVQPGGSLRLSCAASGFTFDSYSMNWVRQAPGKGLEWVAGINYNGGYKSYADSVKGRFTISRDNSKNTLYLQMNSLRAEDTAVYYCARGANWHDTHLDYWGQGTLVTVSS VL: DIQMTQSPSSLSASVGDRVTITCRASQSIVTYLNWYQQKPGKAPKLLIYAATSRASGVPSRFSGSGSGTDFTLTISSLQPEDFATYYCQQSYDTPLTFGGGTKVEIK")
3.02
>>> quantitative_result("376_C04 (antibody, V domains shown, Group III) VH: EVQLLESGGGLVQPGGSLRLSCAASGFTFSSYGMNWVRQAPGKGLEWVSNINYNGGYTGYADSVKGRFTISRDNSKNTLYLQMNSLRAEDTAVYYCARGANWHDTALDYWGQGTLVTVSS VL: DIQMTQSPSSLSASVGDRVTITCRASQSILSYVNWYQQKPGKAPKLLIYAVTSRHSGVPSRFSGSGSGTDFTLTISSLQPEDFATYYCQQSYDNPLTFGGGTKVEIK")
3.4

Next binder, please.
response.value for 371_C04 (antibody, V domains shown, Group III) VH: EVQLLESGGGLVQPGGSLRLSCAASGFTFDSYGMNWVRQAPGKGLEWVSGINYNSGYKGYADSVKGRFTISRDNSKNTLYLQMNSLRAEDTAVYYCARGANWHDTALDYWGQGTLVTVSS VL: DIQMTQSPSSLSASVGDRVTITCRASQSILSYLNWYQQKPGKAPKLLIYAATSRASGVPSRFSGSGSGTDFTLTISSLQPEDFATYYCQQSYSTPLTFGGGTKVEIK (field: optical density) = 3.45
